The reported numbers originate from ChEMBL document CHEMBL5291721.

Examples of compounds with documented AC50 follow.
- assayed target: UniProtKB P32245
- Sequence (P32245 whole entry): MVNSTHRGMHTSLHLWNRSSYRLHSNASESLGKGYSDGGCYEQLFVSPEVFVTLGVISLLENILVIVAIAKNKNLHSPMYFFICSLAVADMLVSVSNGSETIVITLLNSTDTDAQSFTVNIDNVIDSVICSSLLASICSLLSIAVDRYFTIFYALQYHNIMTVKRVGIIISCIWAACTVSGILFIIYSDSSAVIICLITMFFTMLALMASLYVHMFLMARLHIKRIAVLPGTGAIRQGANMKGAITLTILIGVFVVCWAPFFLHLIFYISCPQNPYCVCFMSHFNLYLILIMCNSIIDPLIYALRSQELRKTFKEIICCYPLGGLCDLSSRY

Consider the worked cases shown below.
O=C1CCc2cc(OCCCCc3nnnn3C3CCCCC3)ccc2N1 [CILOSTAZOL]: > 30 µM
Cc1ncc2n1-c1ccc(Cl)cc1C(c1ccccc1F)=NC2 [MIDAZOLAM]: > 30 µM

Pending compound:
AC50 of CC(C)N(CCC(C(N)=O)(c1ccccc1)c1ccccn1)C(C)C (configuration not stated) [DISOPYRAMIDE] on UniProtKB P32245? > 30 µM

---

- assayed target: Gamma-aminobutyric acid receptor subunit alpha-1 (Rattus norvegicus, UniProt P62813); also: assay procedure not described here
- Sequence (P62813 whole entry): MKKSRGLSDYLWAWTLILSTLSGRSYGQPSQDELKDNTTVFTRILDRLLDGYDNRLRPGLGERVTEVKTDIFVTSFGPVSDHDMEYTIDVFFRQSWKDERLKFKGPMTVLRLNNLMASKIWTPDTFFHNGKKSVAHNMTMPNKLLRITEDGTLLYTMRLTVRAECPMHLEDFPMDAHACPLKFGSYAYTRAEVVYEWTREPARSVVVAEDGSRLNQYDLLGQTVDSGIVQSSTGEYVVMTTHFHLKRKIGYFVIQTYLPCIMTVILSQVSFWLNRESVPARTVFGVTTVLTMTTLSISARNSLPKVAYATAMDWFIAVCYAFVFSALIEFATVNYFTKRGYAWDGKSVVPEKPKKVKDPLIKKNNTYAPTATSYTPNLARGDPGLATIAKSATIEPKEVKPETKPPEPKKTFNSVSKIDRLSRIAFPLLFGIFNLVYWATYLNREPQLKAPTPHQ
- Assay type: functional
parameter measured: AC50

Consider the worked cases shown below.
N[C@@H](CC(=O)N1CCn2c(nnc2C(F)(F)F)C1)Cc1cc(F)c(F)cc1F [SITAGLIPTIN]: > 30 µM
C=C1/C(=C\C=C2/CCC[C@]3(C)[C@@H]([C@H](C)/C=C/[C@@H](O)C4CC4)CC[C@@H]23)C[C@@H](O)C[C@@H]1O [CALCIPOTRIENE]: > 30 µM
C[C@@H](NCCCc1cccc(C(F)(F)F)c1)c1cccc2ccccc12: > 30 µM

Pending molecule:
For the molecule CCCC(CCC)C(=O)O [VALPROIC ACID] , what AC50 is on record? > 10 µM
